- tested-on: Tyrosine-protein kinase BTK (Homo sapiens)
- Sequence (Q06187 whole entry): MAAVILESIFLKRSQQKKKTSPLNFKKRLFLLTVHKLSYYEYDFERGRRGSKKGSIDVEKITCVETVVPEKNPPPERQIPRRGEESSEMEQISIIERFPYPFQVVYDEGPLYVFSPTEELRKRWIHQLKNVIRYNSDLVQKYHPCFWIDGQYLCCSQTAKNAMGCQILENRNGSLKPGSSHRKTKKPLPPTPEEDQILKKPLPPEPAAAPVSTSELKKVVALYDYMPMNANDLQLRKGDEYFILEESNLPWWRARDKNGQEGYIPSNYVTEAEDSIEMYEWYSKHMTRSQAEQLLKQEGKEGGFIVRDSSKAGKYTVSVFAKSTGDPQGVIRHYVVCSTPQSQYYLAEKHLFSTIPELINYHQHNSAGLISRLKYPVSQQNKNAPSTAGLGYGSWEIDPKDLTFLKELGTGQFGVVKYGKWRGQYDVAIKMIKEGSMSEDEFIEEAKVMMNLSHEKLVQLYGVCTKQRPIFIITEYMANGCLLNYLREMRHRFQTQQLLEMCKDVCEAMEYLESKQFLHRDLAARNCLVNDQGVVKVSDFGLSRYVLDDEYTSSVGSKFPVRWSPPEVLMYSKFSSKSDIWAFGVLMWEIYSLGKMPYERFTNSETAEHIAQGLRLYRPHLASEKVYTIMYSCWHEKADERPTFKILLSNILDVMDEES
- test-method-notes: 25P Btk Enzyme Activity Assay: Btk enzymatic activity was determined with the LANCE (Lanthanide Chelate Excite) TR-FRET (lime-resolved fluorescence resonance energy transfer) assay. […] To each well of a black non-binding surface Corning 384-well microplate (Corning Catalog #3820), 5 nL of compound (2000 fold dilution in final assay volume of 10 μL) was dispensed, followed by the addition of 7.5 μL of 1× kinase buffer (50 mM Hepes 7.5, 10 mM MgCl2, 0.01% Brij-35, 1 mM EGTA, 0.05% BSA and 1 mM DTT) containing 26.67 pg/μL (266.7 pM) of 25P Btk enzyme (recombinant protein from baculovirus-transfected Sf9 cells: full-length Btk; MW=79378 Da). Following a 60 minute compound and enzyme incubation, each reaction was initiated by the addition of 2.5 μL 1× kinase buffer containing 8 μM biotinylated “A5” peptide (Biotin-EQEDEPEGDYFEWLE-NH2), and 100 μM ATP. The final reaction in each well of 10 consists of 200 pM 25P Btk, 2 μM biotin-A5-peptide, and 25 μM ATP. Phosphorylation reactions were allowed to proceed for 120 minutes. Reactions were immediately quenched by the addition of 20 uL of 1× quench buffer (15 mM EDTA, 25 mM Hepes 7.3, and 0.1% Triton X-100) containing detection reagents (0.626 nM of LANCE-Eu-W1024-anti-phosphoTyrosine antibody, PerkinElmer and 86.8 nM of Streptavidin-conjugated Dylight 650, Dyomics/ThermoFisher Scientific). After 60 minutes incubation with detection reagents, reaction plates were read on a PerkinElmer EnVision plate reader using standard TR-FRET protocol. Briefly, excitation of donor molecules (Eu-chelate:anti-phospho-antibody) with a laser light source at 337 nm produces energy that can be transferred to Dylight-650 acceptor molecules if this donor:acceptor pair is within close proximity. Fluorescence intensity at both 665 nm (acceptor) and 615 nm (donor) are measured and a TR-FRET ratio calculated for each well (acceptor intensity/donor intensity). IC50 values were determined by 4 parameter robust fit of TR-FRET ratio values vs. (Log10) compound concentrations.
reported-endpoint: IC50 (nM)
Kindly answer with a numeric value in nM, unit omitted.

Prompt line: What value of IC50 on Tyrosine-protein kinase BTK (Homo sapiens) does Cc1c(NC(=O)c2ccc(C(C)(C)C)cc2F)cccc1-c1cc(-c2cnn(C)c2)c2[nH]nc(N)c2c1 have?
Response line: 23.8

Data origin: ChEMBL document CHEMBL5726800
